Measured PBM E-score accompanies every entry in the list below.
measured on: Msn1 (UniProt P22148)
Sequence: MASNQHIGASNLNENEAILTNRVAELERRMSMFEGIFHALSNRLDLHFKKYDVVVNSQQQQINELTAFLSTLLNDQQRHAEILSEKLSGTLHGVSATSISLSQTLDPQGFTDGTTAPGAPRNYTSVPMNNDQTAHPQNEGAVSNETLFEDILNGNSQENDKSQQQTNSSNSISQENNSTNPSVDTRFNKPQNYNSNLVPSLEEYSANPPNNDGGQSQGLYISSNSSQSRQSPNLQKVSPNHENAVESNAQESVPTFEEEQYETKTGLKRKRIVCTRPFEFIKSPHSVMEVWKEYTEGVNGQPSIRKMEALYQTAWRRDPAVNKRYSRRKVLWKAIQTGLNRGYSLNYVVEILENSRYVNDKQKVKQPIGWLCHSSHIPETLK
protocol summary: PBM E-score (8-mer binding enrichment) (E-score (-0.5 to 0.5)); higher = stronger / more preferred TF binding
particulars: protein concentration: 200 nM; construct: GST-full length
The full ranking holds about 33,000 sequences; the median of “E-score (-0.5 to 0.5)” is about -0.013, and the highest 2% start at about 0.3. For the sample, the highest values were picked, then their nearest neighbours and some sequences at random.
measured attribute: PBM E-score

{"columns": ["ordered residues", "measured on", "value reported"],
 "data": [
  ["AGGACAAT", "Msn1 (UniProt P22148)", 0.483],
  ["CGGGACCA", "Msn1 (UniProt P22148)", -0.152],
  ["CCTCCTGA", "Msn1 (UniProt P22148)", -0.153]
]}

###

measured on: Msn1 (UniProt P22148)
Sequence: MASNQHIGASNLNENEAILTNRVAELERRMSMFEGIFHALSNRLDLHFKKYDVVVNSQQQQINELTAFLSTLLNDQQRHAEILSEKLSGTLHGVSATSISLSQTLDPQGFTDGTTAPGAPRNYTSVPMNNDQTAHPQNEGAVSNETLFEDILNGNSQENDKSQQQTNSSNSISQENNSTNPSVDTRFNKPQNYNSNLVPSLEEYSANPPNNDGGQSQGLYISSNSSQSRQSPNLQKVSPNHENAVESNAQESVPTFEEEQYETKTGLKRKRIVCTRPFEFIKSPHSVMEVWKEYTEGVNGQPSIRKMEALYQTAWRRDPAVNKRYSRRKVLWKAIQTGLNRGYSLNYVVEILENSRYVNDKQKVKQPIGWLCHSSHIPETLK
protocol summary: PBM E-score (8-mer binding enrichment) (E-score (-0.5 to 0.5)); higher = stronger / more preferred TF binding
particulars: protein concentration: 200 nM; construct: GST-full length
Whole data set: some 33,000 sequences, median “E-score (-0.5 to 0.5)” near -0.013, cut for the highest 2% near 0.3. The list comes from a sample in which the highest values are over-represented; it also holds close analogues and randomly drawn sequences.
Assign T to entries whose PBM E-score meets or exceeds 0.02; assign F to the rest.

{"columns": ["ordered residues", "assigned category"],
 "data": [
  ["CAGAATAC", "T"],
  ["GACAAACC", "T"],
  ["AGACCCTG", "F"],
  ["AATGGACT", "T"],
  ["TTGTACAA", "T"],
  ["GATGGAAA", "F"],
  ["ATTACGCG", "F"],
  ["AATGGACG", "T"],
  ["AATTAATA", "T"],
  ["GATGGACA", "T"],
  ["GTCCGAAA", "T"],
  ["GCTTGAAC", "T"],
  ["TACATTAA", "T"],
  ["GATCGGCC", "F"],
  ["AATGGACA", "T"],
  ["GTCATTGA", "T"],
  ["GCCGGTCC", "F"],
  ["GATTAATA", "T"],
  ["GTCCGACA", "T"],
  ["CGAAGCAC", "T"],
  ["CGTGACAA", "T"],
  ["ATAGACCA", "F"],
  ["ATTAGCAA", "T"],
  ["ACTGTCAC", "F"],
  ["AATGTCAC", "T"],
  ["GACATTCC", "T"],
  ["CTTGGGTC", "F"],
  ["CGAGTGGC", "F"],
  ["AACATTAC", "F"],
  ["TAAAGTGA", "T"],
  ["GTGTACAA", "T"],
  ["CGTAGCTA", "F"],
  ["ACCAACAG", "F"]
]}
